assay: NCI Yeast Anticancer Drug Screen. Data for the bub3 strain (AID 167); conditions: S. cerevisiae bub3 mutant strain, at 50.0 µM
The panel holds about 79,000 compounds, 15% with a hit somewhere; the sample as a whole holds those more often. Active and inactive are the calls of the source. No stated cut-off is given here; in the data, active means growth inhibition above about 70%; inactive means the rest.
Possible outcomes: Yes for active, No for inactive

{"columns": ["molecule", "class.label"],
 "data": [
  ["COC(CC[P+](c1ccccc1)(c1ccccc1)c1ccccc1)(C(=O)c1ccccc1)c1ccccc1 (configuration not stated)", "Yes"],
  ["CC(C)C(=O)c1ccc2ccccc2c1O", "No"],
  ["CCCCC/C(=C/C=C/c1ccc(Cl)cc1)CN(C)C", "Yes"],
  ["Oc1ccc2cc(Br)ccc2c1", "Yes"],
  ["Cc1csc2c1C(=O)c1ccsc1C2=O", "Yes"],
  ["COC(=O)CSc1nc2[nH]c(SC)c(C(N)=O)c2c(=O)n1-c1ccccc1", "No"],
  ["Oc1cc(Cl)cc2cc(Cl)cnc12", "Yes"],
  ["CC(c1ccc2cccc(F)c2c1)c1ccccc1C(=O)O (configuration not stated)", "Yes"],
  ["O=S(=O)(Nc1ccc2ccc3cccc4ccc1c2c34)c1ccccc1", "No"],
  ["COc1cc(C/C(=C/c2ccc(OC)c3occc23)[N+](=O)[O-])cc(OC)c1OC", "No"],
  ["O=C1OC2(CCCCC2)OC(=O)C1=Cc1ccc([N+](=O)[O-])s1", "No"],
  ["Cc1ccc(OS(=O)(=O)c2ccc(Br)cc2)cc1", "No"],
  ["CC(=O)Nc1nc(Cl)c2ncn(C3CC(OC(=O)c4ccc(C)cc4)C(COC(=O)c4ccc(C)cc4)O3)c2n1 (configuration not stated)", "No"],
  ["CN(C)Cc1ccc(C(C)(C)C)cc1-c1cc(C(C)(C)C)ccc1CN(C)C", "No"],
  ["CCCCCCCCCCCCCCCCCC[N+]1(CC)CCCCC1", "Yes"],
  ["CCCOc1ccc(/C=N/NC(N)=S)cc1", "No"],
  ["CC1CN(CCCN2c3ccccc3Sc3ccc(Cl)cc32)C(C)(C)C1 (configuration not stated)", "Yes"],
  ["COc1ccc(OP2(Oc3ccc(OC)cc3)=NP(Oc3ccc(OC)cc3)(Oc3ccc(OC)cc3)=NP(Oc3ccc(OC)cc3)(Oc3ccc(OC)cc3)=NP(Oc3ccc(OC)cc3)(Oc3ccc(OC)cc3)=N2)cc1", "No"],
  ["COc1cc2c(cc1C(C)C)CCC1C(C)(C#N)CCCC21C (configuration not stated)", "No"],
  ["O=C1CC(O)C=C1Nc1ccc(Cl)cc1 (configuration not stated)", "Yes"],
  ["CCOC(=O)C1=C(Nc2ccc(Br)cc2)OC/C1=N\\NC(=O)c1ccccc1O", "No"],
  ["CC[n+]1cnc(N)c2c(-c3ccc(Cl)cc3)cn(-c3ccc(C)cc3)c21", "Yes"]
]}

The reported numbers originate from PubChem BioAssay (NCI).
